Origin of the recorded values: the supplement of paper PMC10307832

System: SK-LU-1
Test: relative viability (nuclei count vs DMSO), 5 days (fraction); higher = more cells survive
Conditions: first compound 2.53 µM
Exercise: state measured relative viability for each of the compounds provided.
Numbers only.

Example entries begin here.
INSERT INTO results (compound, target_of_assay, property_name, reported) VALUES
  ('Nc1cccc2c1CN(C1CCC(=O)NC1=O)C2=O (centres undefined) [Lenalidomide] + COc1cccc2cc(-c3nc([C@H]4CC[C@H](C(=O)O)CC4)n4ncnc(N)c34)[nH]c12 [OSI-027] (partner 0.5 µM)', 'SK-LU-1', 'relative viability', 0.36),
  ('Nc1cccc2c1CN(C1CCC(=O)NC1=O)C2=O (centres undefined) [Lenalidomide] + CC(=O)Nc1cccc(-n2c(=O)n(C3CC3)c(=O)c3c(Nc4ccc(I)cc4F)n(C)c(=O)c(C)c32)c1 [Trametinib] (partner 0.02 µM)', 'SK-LU-1', 'relative viability', 0.596),
  ('Nc1cccc2c1CN(C1CCC(=O)NC1=O)C2=O (centres undefined) [Lenalidomide] + Cc1cc(Nc2cc(N3CCN(C)CC3)nc(Sc3ccc(NC(=O)C4CC4)cc3)n2)n[nH]1 [Tozasertib] (partner 0.1 µM)', 'SK-LU-1', 'relative viability', 0.399);

As a next step, examine the compound that follows.
Entry under review: Nc1cccc2c1CN(C1CCC(=O)NC1=O)C2=O (centres undefined) [Lenalidomide] + N=C(N)NC(=N)NCCc1ccccc1 [Phenformin] (partner 250 µM) . Reported relative viability?
0.693
